test.target: Bacterial 70S ribosome
experimental.protocol: Inhibition of Mycobacterium smegmatis wild type ribosomes assessed as inhibition of translation activity using Firefly luciferase mRNA reporter based luminescence analysis
Quick reference for pIC50 among some compounds
Please report pIC50 as the negative decimal logarithm of the molar concentration, giving only the number.

input_smiles=NC[C@@H]1O[C@H](O[C@H]2[C@@H](O)[C@H](O[C@@H]3[C@@H](O)[C@H](N)C[C@H](N)[C@H]3O[C@H]3O[C@H]4[C@@H](OCCC[C@@H]4O)[C@H](O)[C@H]3N)O[C@@H]2CO)[C@H](N)[C@@H](O)[C@@H]1O test_target="Bacterial 70S ribosome" outcome_measure=pIC50 result_value=7.15

Please state recorded pIC50 (tested on Bacterial 70S ribosome) of `NC[C@@H]1O[C@H](O[C@H]2[C@@H](O)[C@H](O[C@@H]3[C@@H](O)[C@H](N)C[C@H](N)[C@H]3O[C@H]3O[C@H](CO)[C@@H](O)[C@H](O)[C@H]3N)O[C@@H]2CO)[C@H](N)[C@@H](O)[C@@H]1O`
7.48

###

Quick reference for Ratio IC50 among some compounds
experimental.protocol: Selectivity ratio of IC50 for inhibition of human mitochondrial ribosome Mit 13 hybridized with Mycobacterium smegmatis ribosome to IC50 for inhibition of Mycobacterium smegmatis wild type ribosomes
Lab note: jot the number down without any unit.

Recorded results for 3 compounds are shown here.
input_smiles=NC[C@@H]1O[C@H](O[C@H]2[C@@H](O)[C@H](O[C@@H]3[C@@H](O)[C@H](N)C[C@H](N)[C@H]3O[C@H]3O[C@H]4[C@@H](OCC[C@H]4O)[C@H](O)[C@H]3N)O[C@@H]2CO)[C@H](N)[C@@H](O)[C@@H]1O outcome_measure="Ratio IC50" result_value=168
input_smiles=C[C@@H]1C[C@@H](O)[C@H]2O[C@H](O[C@H]3[C@H](O[C@@H]4O[C@H](CO)[C@@H](O[C@H]5O[C@@H](CN)[C@@H](O)[C@H](O)[C@H]5N)[C@H]4O)[C@@H](O)[C@H](N)C[C@@H]3N)[C@H](N)[C@@H](O)[C@@H]2O1 outcome_measure="Ratio IC50" result_value=418
input_smiles=NC[C@@H]1O[C@H](O[C@H]2[C@@H](O)[C@H](O[C@@H]3[C@@H](O)[C@H](N)C[C@H](N)[C@H]3O[C@H]3O[C@H]4[C@@H](OC[C@@H]4O)[C@H](O)[C@H]3N)O[C@@H]2CO)[C@H](N)[C@@H](O)[C@@H]1O outcome_measure="Ratio IC50" result_value=943

Quick one: Ratio IC50 of `NC[C@@H]1O[C@H](O[C@H]2[C@@H](O)[C@H](O[C@@H]3[C@@H](O)[C@H](N)C[C@H](N)[C@H]3O[C@H]3O[C@H]4[C@@H](OCCC[C@H]4O)[C@H](O)[C@H]3N)O[C@@H]2CO)[C@H](N)[C@@H](O)[C@@H]1O` ?
342

What would you report for `C[C@@H]1C[C@H](O)[C@H]2O[C@H](O[C@H]3[C@H](O[C@@H]4O[C@H](CO)[C@@H](O[C@H]5O[C@@H](CN)[C@@H](O)[C@H](O)[C@H]5N)[C@H]4O)[C@@H](O)[C@H](N)C[C@@H]3N)[C@H](N)[C@@H](O)[C@@H]2O1` ?
3970

###

test.target: Bacterial 70S ribosome
experimental.protocol: Inhibition of Mycobacterium smegmatis wild type ribosomes assessed as inhibition of translation activity using Firefly luciferase mRNA reporter based luminescence analysis
outcome.measure: log10(IC50) (log10 of the value in nM)
Values below are the log10 of the recorded IC50, with nM as the unit.

input_smiles=C[C@@H]1C[C@@H](O)[C@H]2O[C@H](O[C@H]3[C@H](O[C@@H]4O[C@H](CO)[C@@H](O[C@H]5O[C@@H](CN)[C@@H](O)[C@H](O)[C@H]5N)[C@H]4O)[C@@H](O)[C@H](N)C[C@@H]3N)[C@H](N)[C@@H](O)[C@@H]2O1 outcome_measure=log10(IC50) result_value=2.95
input_smiles=NC[C@@H]1O[C@H](O[C@H]2[C@@H](O)[C@H](O[C@@H]3[C@@H](O)[C@H](N)C[C@H](N)[C@H]3O[C@H]3O[C@H]4[C@@H](OC[C@H]4O)[C@H](O)[C@H]3N)O[C@@H]2CO)[C@H](N)[C@@H](O)[C@@H]1O outcome_measure=log10(IC50) result_value=2.30
input_smiles=NC[C@@H]1O[C@H](O[C@H]2[C@@H](O)[C@H](O[C@@H]3[C@@H](O)[C@H](N)C[C@H](N)[C@H]3O[C@H]3O[C@H]4[C@@H](OCC[C@@H]4O)[C@H](O)[C@H]3N)O[C@@H]2CO)[C@H](N)[C@@H](O)[C@@H]1O outcome_measure=log10(IC50) result_value=2.08
input_smiles=NC[C@@H]1O[C@H](O[C@H]2[C@@H](O)[C@H](O[C@@H]3[C@@H](O)[C@H](N)C[C@H](N)[C@H]3O[C@H]3O[C@H]4[C@@H](OCC[C@H]4O)[C@H](O)[C@H]3N)O[C@@H]2CO)[C@H](N)[C@@H](O)[C@@H]1O outcome_measure=log10(IC50) result_value=3.52
input_smiles=NC[C@@H]1O[C@H](O[C@H]2[C@@H](O)[C@H](O[C@@H]3[C@@H](O)[C@H](N)C[C@H](N)[C@H]3O[C@H]3O[C@H]4[C@@H](OCCC[C@H]4O)[C@H](O)[C@H]3N)O[C@@H]2CO)[C@H](N)[C@@H](O)[C@@H]1O outcome_measure=log10(IC50) result_value=3.18

Please state recorded log10(IC50) (tested on Bacterial 70S ribosome) of `NC[C@@H]1O[C@H](O[C@H]2[C@@H](O)[C@H](O[C@@H]3[C@@H](O)[C@H](N)C[C@H](N)[C@H]3O[C@H]3O[C@H]4[C@@H](OC[C@@H]4O)[C@H](O)[C@H]3N)O[C@@H]2CO)[C@H](N)[C@@H](O)[C@@H]1O`
2.11

What would you report for `C[C@@H]1C[C@H](O)[C@H]2O[C@H](O[C@H]3[C@H](O[C@@H]4O[C@H](CO)[C@@H](O[C@H]5O[C@@H](CN)[C@@H](O)[C@H](O)[C@H]5N)[C@H]4O)[C@@H](O)[C@H](N)C[C@@H]3N)[C@H](N)[C@@H](O)[C@@H]2O1` ?
1.80

###

Quick reference for MIC among some compounds
System: Enterobacter cloacae
experimental.protocol: Antibacterial activity against Enterobacter cloacae AG290
Format: functional
Please don't drop the unit; write it after the number.

Recorded results for 3 compounds are shown here.
input_smiles=NC[C@@H]1O[C@H](O[C@H]2[C@@H](O)[C@H](O[C@@H]3[C@@H](O)[C@H](N)C[C@H](N)[C@H]3O[C@H]3O[C@H]4[C@@H](OCC[C@H]4O)[C@H](O)[C@H]3N)O[C@@H]2CO)[C@H](N)[C@@H](O)[C@@H]1O result_value="64 µg/mL"
input_smiles=NC[C@@H]1O[C@H](O[C@H]2[C@@H](O)[C@H](O[C@@H]3[C@@H](O)[C@H](N)C[C@H](N)[C@H]3O[C@H]3O[C@H]4[C@@H](OC[C@H]4O)[C@H](O)[C@H]3N)O[C@@H]2CO)[C@H](N)[C@@H](O)[C@@H]1O result_value="8 µg/mL"
input_smiles=C[C@@H]1C[C@@H](O)[C@H]2O[C@H](O[C@H]3[C@H](O[C@@H]4O[C@H](CO)[C@@H](O[C@H]5O[C@@H](CN)[C@@H](O)[C@H](O)[C@H]5N)[C@H]4O)[C@@H](O)[C@H](N)C[C@@H]3N)[C@H](N)[C@@H](O)[C@@H]2O1 result_value="32 µg/mL"

# evaluate next
Quick one: MIC of `NC[C@@H]1O[C@H](O[C@H]2[C@@H](O)[C@H](O[C@@H]3[C@@H](O)[C@H](N)C[C@H](N)[C@H]3O[C@H]3O[C@H]4[C@@H](OCC[C@@H]4O)[C@H](O)[C@H]3N)O[C@@H]2CO)[C@H](N)[C@@H](O)[C@@H]1O` ?
4 µg/mL
